# System: CP185
# EXPERIMENT_SUMMARY: qHTS profiling for inhibitors of Plasmodium falciparum proliferation (AID 504749); note: nearly all actives have a fitted effect of over 60% in size
# CONDITION_SUMMARY: P. falciparum in erythrocytes, SYBR Green DNA, 72 h; series mostly up to 28.7 µM
Records with an inconclusive call do not appear. Active and inactive are the calls of the source. Calls come from the whole dose curve; as a rule, active = well fitted inhibition curve with a large enough effect; inconclusive = small, poorly fitted or top-dose-only effect; inactive = flat fitted curve, though single readings scatter.
Outcome (select one): active, inactive

# count of solved cases: 5
                                   compound  experimental_system  discrete_label
0  O=C(CCN1CCN2CCCC2C1)N1c2ccccc2Sc2ccc(Cl)cc21 (stereo not given)                CP185        inactive
1  O=C(c1ccc(F)cc1)C1CCN(CCn2c(=S)[nH]c3ccccc3c2=O)CC1                CP185          active
2  COc1ccc(CCN(C)CCCN2CCc3cc(OC)c(OC)cc3CC2=O)cc1OC                CP185        inactive
3  CC(=O)Nc1ccc(S(=O)(=O)Nc2ccc([N+](=O)[O-])cc2)cc1                CP185        inactive
4         Cc1cc(CC(=O)O)c(C)n1-c1ccc(Cl)cc1                CP185        inactive

Input line: Any idea what this test logged for COc1cc(C)nc(-n2nc(C)cc2OC)n1 ?
Output line: inactive

Input line: For CC(=O)Nc1ccc(OCC(O)CNC(C)C)cc1 (stereo not given) , which call appears in the assay record?
Output line: inactive

Input line: Write down the call the test reported for this compound. Item: CN1CCN(c2cc3c(cc2F)c(=O)c(C(=O)O)cn3-c2ccc(F)cc2)CC1
Output line: inactive

Input line: Outcome? CCc1oc2ccccc2c1C(=O)c1cc(Br)c(O)c(Br)c1
Output line: inactive

Input line: Hi team, can someone confirm the assay call for COc1cc(C(=S)N2CCOCC2)ccc1O ?
Output line: inactive

###

# EXPERIMENT_SUMMARY: qHTS assay for small molecule activators of the p53 signaling pathway (AID 651743); note: % of control where 0% means no effect
# CONDITION_SUMMARY: HCT-116 p53RE-bla, beta-lactamase FRET ratio, 16 h; active compounds read high
Records with an inconclusive call do not appear.
MEASURED_QUANTITY: activation (%)
# unit: % | format: bare number

Observe how each entry below is paired with its result.
>>> print(df.to_string())
                                   compound  units_of_measure  value_reported
0                           NC(=O)c1ccccc1O                 %           -1.87
1  C=C[C@@]1(C)CC(=O)[C@]2(O)[C@@]3(C)[C@@H](O)CCC(C)(C)[C@@H]3[C@H](O)[C@H](OC(C)=O)[C@@]2(C)O1                 %           -4.19
2                        NCCNc1cccc2ccccc12                 %            1.04
3          O=C(O)c1ccc(S(=O)(=O)N(Cl)Cl)cc1                 %          -0.128
4                     CCCCCCCCCCCCCCCC(=O)O                 %            1.38

Memo: CCCCOC(=O)CC(CC(=O)OCCCC)(OC(C)=O)C(=O)OCCCC , reported activation: -5.7

Memo: CCOc1ccccc1C(N)=O , reported activation: 1.59

Reported activation for C#C[C@]1(O)CC[C@H]2[C@@H]3CCC4=Cc5oncc5C[C@]4(C)[C@H]3CC[C@@]21C was -3.96

###

In this section we review reported Potency values for a set of compounds.
# EXPERIMENT_SUMMARY: qHTS Assay for Identifying Gametocytocidal Compounds (AID 743244); note: potency is the fitted concentration of half-maximal effect
# CONDITION_SUMMARY: P. falciparum 3D7 stage III-V gametocytes, alamarBlue, 72 h
# Source text: Malaria cases and deaths have dropped 50% in 29 countries since 2000 due to the combined effects of long-lasting insecticidal bednets, indoor residual spraying, and artemisinin-based combination therapies (ACTs). […] Within live cells, the nonfluorescent resazurin is reduced to resorufin, a bright red fluorescence dye. Fluorescence decreases upon treatment of gametocytocidal compounds. […]
Inconclusive results are not listed. Calls of active or inactive are those of the source. Calls come from the whole dose curve; as a rule, active = well fitted curve in the direction sought with a large enough effect; inconclusive = small, poorly fitted or top-dose-only effect, or another doubt; inactive = no such curve, though single readings can be large or run the other way.

Some solved entries appear below for comparison.
COMPOUND	Potency
CCCCCCCCCCCCCC[N+](C)(C)Cc1ccccc1	8.91 µM (active)
CNCCCCOc1ccccc1Cc1ccccc1	18.7 µM (active)

// sample CO[C@H]1C=CO[C@@]2(C)Oc3c(C)c(O)c4c(O)c(c(/C=N/N5CCN(C)CC5)c(O)c4c3C2=O)NC(=O)/C(C)=C\C=C[C@H](C)[C@H](O)[C@@H](C)[C@@H](O)[C@@H](C)[C@H](OC(C)=O)[C@@H]1C , its Potency was 15.8 µM (active)

In plain terms, O=C1C(CCS(=O)c2ccccc2)C(=O)N(c2ccccc2)N1c1ccccc1 (configuration not stated) has a documented Potency of 0.0089 µM (active)

Entry O=C(CCN1CCN2CCCC2C1)N1c2ccccc2Sc2ccc(Cl)cc21 (configuration not stated) , Potency reported as 22.4 µM (active)

In plain terms, CCN(CC)CCOc1ccc2c(c1)C(=O)c1cc(OCCN(CC)CC)ccc1-2 has a documented Potency of 12.6 µM (active)

Potency recorded for this compound, CCOC(=O)c1c(N)sc2c1CCN(Cc1ccccc1)C2 , is 11.2 µM (active)

###

# EXPERIMENT_SUMMARY: qHTS profiling for inhibitors of Plasmodium falciparum proliferation (AID 504749); note: nearly all actives have a fitted effect of over 60% in size;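 for activity, negative = inhibition: 0% = DMSO vehicle and full inhibition = artemisinin control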
# CONDITION_SUMMARY: P. falciparum in erythrocytes, SYBR Green DNA, 72 h; at 28.7 µM (top of the series); parasite line B
Inconclusive results are not listed.
Entries and their activity, negative = inhibition
Please give a number only; it is taken to be in %.

Previously resolved entries follow.
>>> df
                                   molecule                measured_quantity  units_of_measure  value_reported
0  C#C[C@]1(O)CC[C@H]2[C@@H]3CCC4=Cc5oncc5C[C@]4(C)[C@H]3CC[C@@]21C  activity, negative = inhibition                 %           -11.7
1  CC(=O)O[C@H]1C[C@@H]2CC[C@@H]3[C@H](CC[C@@]4(C)[C@H]3C[C@H]([N+]3(C)CCCCC3)[C@@H]4OC(C)=O)[C@@]2(C)C[C@@H]1N1CCCCC1  activity, negative = inhibition                 %           -19.6
2            Cl/C(=C\n1cncn1)c1ccc(Cl)cc1Cl  activity, negative = inhibition                 %            7.76
3        NS(=O)(=O)c1ccc(Cl)c(S(N)(=O)=O)c1  activity, negative = inhibition                 %            14.1
4                    Nc1nc(N)c(-c2ccccc2)s1  activity, negative = inhibition                 %            11.9

Form: molecule = CCCCC(CC)COC(=O)/C=C/c1ccc(OC)cc1 (stereo not given) ; activity, negative = inhibition = 11.8

Entry under test: Oc1ccccc1C=NCc1ccccc1 . Its activity, negative = inhibition was -16.9

Query CCCCCCCCCCCCCC(=O)OC(C)C yields activity, negative = inhibition of 10.9

In plain terms, CN1CCC[C@@H]1CCO[C@](C)(c1ccccc1)c1ccc(Cl)cc1 has a documented activity, negative = inhibition of -15.8

###

Catalogue of caspase-3 activation readings, one per entry.
# EXPERIMENT_SUMMARY: Cellular Toxicity (caspase-3) Jurkat (AID 655);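 note: cells exposed to compound for 16 h at 37 °C before reading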
# CONDITION_SUMMARY: Jurkat caspase-3 activation, luminescence, DMSO = 0%, tamoxifen = 100%; at 92.2 µM (top of the series)
Records with an inconclusive call do not appear.
Numbers only; they are read as %.

In [3]: df
Out[3]:
                                   compound  units_of_measure  value_reported
0  COc1ccc(C(Cl)=C(c2ccc(OC)cc2)c2ccc(OC)cc2)cc1                 %            2.72
1  COc1cc([C@H]2Oc3cc([C@H]4Oc5cc(O)cc(O)c5C(=O)[C@@H]4O)ccc3O[C@@H]2CO)ccc1O                 %            7.36
2              COc1ccc(C(=O)c2ccccc2)c(O)c1                 %            25.4
3  CCCCC(CC)COC(=O)c1ccc(N(C)C)cc1 (stereo not given)                 %            1.94

Turning to the following compound.
NC(=O)c1ccccc1O yielded caspase-3 activation of -0.838
